- target under test: T1, Recombinant His-tagged human CD36.ECD protein (Sino Biological) (human, UniProt P16671 30-439)
- T1 construct: Bought protein; also called hCD36.ECD; hCD36; not shown: His tag
- T1 sequence (P16671 30-439 limits assumed): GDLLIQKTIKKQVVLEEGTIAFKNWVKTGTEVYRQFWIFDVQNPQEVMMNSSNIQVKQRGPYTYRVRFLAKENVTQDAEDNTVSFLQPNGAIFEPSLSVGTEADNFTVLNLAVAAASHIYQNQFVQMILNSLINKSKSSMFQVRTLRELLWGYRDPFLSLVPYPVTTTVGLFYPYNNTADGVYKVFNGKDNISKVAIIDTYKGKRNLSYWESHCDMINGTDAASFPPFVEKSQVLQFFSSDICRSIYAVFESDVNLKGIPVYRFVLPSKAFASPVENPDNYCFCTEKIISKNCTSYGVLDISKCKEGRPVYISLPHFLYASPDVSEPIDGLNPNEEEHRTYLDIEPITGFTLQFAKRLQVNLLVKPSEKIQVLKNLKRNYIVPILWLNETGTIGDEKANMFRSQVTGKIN
- protocol text: BLI (Octet), antibody on AHC sensor, His-tagged hCD36.ECD in solution, 1:1 fit
Each item that follows carries a reported kon.
// units = M⁻¹ s⁻¹; emit number, no label

Field: example entries. Status: answers known.
117_DA57D (IgG4) (antibody, V domains shown) VH: EVQLVESGGGLVQPGGSLRLSCAASGFTIDAFGIHWVRQAPGKGLEWVAWIAPYGGDTYYADSVKGRFTISADTSKNTAYLQMNSLRAEDTAVYYCARSFFGYFDYWGQGTLVTVSS VL: DIQMTQSPSSLSASVGDRVTITCRASQDVSNWVAWYQQKPGKAPKLLISYATSLYSGVPSRFSGSGSGTDFTLTISSLQPEDFATYYCQQHSNAPLTFGQGTKVEIKR = 317000
117_54E (IgG1) (antibody, V domains shown) VH: EVQLVESGGGLVQPGGSLRLSCAASGFTISSFGIHWVRQAPGKGLEWVAWIAPEGGYTYYADSVKGRFTISADTSKNTAYLQMNSLRAEDTAVYYCARSFFGYFDYWGQGTLVTVSS VL: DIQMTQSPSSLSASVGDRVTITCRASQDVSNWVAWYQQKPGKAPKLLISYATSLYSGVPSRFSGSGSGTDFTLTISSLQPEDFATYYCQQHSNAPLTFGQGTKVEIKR = 978000

Prompt line: // kon lookup, key: 117_57EE (IgG1) (antibody, V domains shown) VH: EVQLVESGGGLVQPGGSLRLSCAASGFTISSFGIHWVRQAPGKGLEWVAWIAPYGGEEYYADSVKGRFTISADTSKNTAYLQMNSLRAEDTAVYYCARSFFGYFDYWGQGTLVTVSS VL: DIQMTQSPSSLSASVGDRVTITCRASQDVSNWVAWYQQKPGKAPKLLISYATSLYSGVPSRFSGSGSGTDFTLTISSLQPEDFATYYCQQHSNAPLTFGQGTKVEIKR
Response line: 364000
